# Study target: rat mGluR5 receptors (Rattus norvegicus, UniProt P31424)
# Sequence (P31424 21-1203): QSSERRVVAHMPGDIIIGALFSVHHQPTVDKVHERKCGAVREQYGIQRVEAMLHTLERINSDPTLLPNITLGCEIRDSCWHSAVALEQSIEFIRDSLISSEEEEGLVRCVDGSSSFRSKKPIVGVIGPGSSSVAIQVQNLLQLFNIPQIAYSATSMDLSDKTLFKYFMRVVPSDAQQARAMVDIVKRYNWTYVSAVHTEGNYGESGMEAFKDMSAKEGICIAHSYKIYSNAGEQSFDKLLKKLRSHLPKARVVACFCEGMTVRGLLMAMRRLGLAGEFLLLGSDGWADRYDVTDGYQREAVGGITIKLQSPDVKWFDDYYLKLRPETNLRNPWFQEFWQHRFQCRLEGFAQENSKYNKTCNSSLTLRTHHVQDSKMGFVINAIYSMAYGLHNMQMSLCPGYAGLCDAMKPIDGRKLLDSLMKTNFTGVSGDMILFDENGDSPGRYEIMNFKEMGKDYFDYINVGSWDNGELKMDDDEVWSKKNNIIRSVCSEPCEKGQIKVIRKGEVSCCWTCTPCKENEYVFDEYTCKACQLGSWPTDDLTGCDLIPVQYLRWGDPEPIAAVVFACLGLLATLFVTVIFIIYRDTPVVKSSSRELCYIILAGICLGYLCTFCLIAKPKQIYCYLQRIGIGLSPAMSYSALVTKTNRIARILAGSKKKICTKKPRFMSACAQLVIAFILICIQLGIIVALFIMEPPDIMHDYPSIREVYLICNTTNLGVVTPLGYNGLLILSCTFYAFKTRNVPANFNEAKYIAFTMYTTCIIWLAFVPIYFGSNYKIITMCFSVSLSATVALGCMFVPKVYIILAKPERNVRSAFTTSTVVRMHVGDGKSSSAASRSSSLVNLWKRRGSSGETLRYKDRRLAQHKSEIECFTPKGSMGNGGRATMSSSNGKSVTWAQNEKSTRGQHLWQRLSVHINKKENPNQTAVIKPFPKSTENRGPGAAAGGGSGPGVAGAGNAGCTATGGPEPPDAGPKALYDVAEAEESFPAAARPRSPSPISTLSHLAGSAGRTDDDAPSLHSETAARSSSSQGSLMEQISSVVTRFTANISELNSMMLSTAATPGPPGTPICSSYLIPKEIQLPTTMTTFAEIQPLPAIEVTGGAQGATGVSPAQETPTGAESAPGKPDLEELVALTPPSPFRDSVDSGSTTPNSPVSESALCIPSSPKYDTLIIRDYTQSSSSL
Parameter measured: Ki

molecule=CC1CCN(c2c(S(=O)(=O)c3cc(F)cc(F)c3)cnc3ccc(Cl)cc23)CC1 recorded_measurement="< 200 nM"
molecule=CCN1CCN(c2c(S(=O)(=O)c3ccc(C)c(C)c3)cnc3cc4c(cc23)OCO4)CC1 recorded_measurement="> 500 nM"
molecule=Cc1ccc(S(=O)(=O)c2cnc3cc4c(cc3c2N2CCCCC2)OCCO4)cc1 recorded_measurement="> 500 nM"

Entry "COc1ccc2ncc(S(=O)(=O)c3ccc(C)cc3)c(N3CCC(C)CC3)c2c1" under rat mGluR5 receptors (Rattus norvegicus, UniProt P31424) had Ki of > 500 nM

Field Ki (rat mGluR5 receptors (Rattus norvegicus, UniProt P31424)), entry "COc1ccc2ncc(S(=O)(=O)c3ccc(C)c(Cl)c3)c(N3CCC(C)CC3)c2c1" : < 200 nM

Value sought: Ki, system rat mGluR5 receptors (Rattus norvegicus, UniProt P31424), item "Cc1ccc(S(=O)(=O)c2cnc3ccccc3c2Nc2ccc3c(c2)OCCO3)cc1" . Result: > 500 nM

Query "CC1CCN(c2c(S(=O)(=O)c3cccc(C#N)c3)cnc3ccc(Cl)cc23)CC1" on rat mGluR5 receptors (Rattus norvegicus, UniProt P31424); Ki returned: < 200 nM

"Cc1ccc(S(=O)(=O)c2cnc3cc(F)ccc3c2N2CCOCC2)cc1C" on rat mGluR5 receptors (Rattus norvegicus, UniProt P31424) gives Ki = 200 to 500 nM

"O=S(=O)(c1ccc(F)c(F)c1)c1cnc2c(F)cccc2c1N1CCOCC1" tested on rat mGluR5 receptors (Rattus norvegicus, UniProt P31424) gave Ki: 200 to 500 nM

// returns Ki for "Cc1ccc2ncc(S(=O)(=O)c3cc(Cl)cc(Cl)c3)c(N3CCC(C)CC3)c2c1" with rat mGluR5 receptors (Rattus norvegicus, UniProt P31424); value = 200 to 500 nM

// assay rat mGluR5 receptors (Rattus norvegicus, UniProt P31424), entry Cc1ccc(S(=O)(=O)c2cnc3ccccc3c2N2CCCC(C)C2)cc1 (centres unmarked) , Ki value = < 200 nM

Assay rat mGluR5 receptors (Rattus norvegicus, UniProt P31424), sample "COc1ccc(S(=O)(=O)c2cnc3cc(Cl)ccc3c2N2CCOCC2)cc1Cl" , Ki read: 200 to 500 nM

Entry "COc1cccc(S(=O)(=O)c2cnc3cc(F)ccc3c2N2CCC(C)CC2)c1" ; assay system rat mGluR5 receptors (Rattus norvegicus, UniProt P31424); Ki recorded at < 200 nM

# value of Ki, rat mGluR5 receptors (Rattus norvegicus, UniProt P31424), item "COc1ccc(S(=O)(=O)c2cnc3ccc(Cl)cc3c2NCc2ccc(C)cc2)cc1" = > 500 nM

Considering "Cc1ccc(S(=O)(=O)c2cnc3ccc(Cl)cc3c2N2CCOCC2)cc1" , its Ki with rat mGluR5 receptors (Rattus norvegicus, UniProt P31424) was recorded as < 200 nM

Param item: "COc1ccc2ncc(S(=O)(=O)c3ccc(Cl)cc3)c(N3CCOCC3)c2c1" ; param system: rat mGluR5 receptors (Rattus norvegicus, UniProt P31424); output Ki: < 200 nM

The measured Ki that "CCOc1ccc2ncc(S(=O)(=O)c3ccc(C)cc3)c(N3CCCCCC3)c2c1" showed for rat mGluR5 receptors (Rattus norvegicus, UniProt P31424) is > 500 nM

###

# Study target: rat mGluR5 receptors (Rattus norvegicus, UniProt P31424)
Ki listing for selected compounds.

Answered examples (6):
compound=CCc1ccc2ncc(S(=O)(=O)c3ccc(OC)cc3)c(N(CC)CC)c2c1 recorded_measurement="> 500 nM"
compound=CC1CCN(c2c(S(=O)(=O)c3ccccc3)cnc3cc(Cl)ccc23)CC1 recorded_measurement="< 200 nM"
compound=Cc1ccc(S(=O)(=O)c2cnc3cc(F)ccc3c2N2CCOCC2)cc1 recorded_measurement="> 500 nM"
compound=Cc1ccc(S(=O)(=O)c2cnc3ccccc3c2N2CCN(c3cc(C)ccc3C)CC2)cc1 recorded_measurement="> 500 nM"
compound=O=S(=O)(c1cc(F)cc(F)c1)c1cnc2cc(Cl)ccc2c1N1CCOCC1 recorded_measurement="200 to 500 nM"
compound=COc1cccc(Nc2c(S(=O)(=O)c3ccccc3)cnc3ccc(OC)cc23)c1 recorded_measurement="> 500 nM"

Now, please, on to the next compound.
Sample "COc1ccc2ncc(S(=O)(=O)c3ccc(Cl)cc3)c(NCc3ccccc3)c2c1" , system: rat mGluR5 receptors (Rattus norvegicus, UniProt P31424). Its Ki is > 500 nM

###

pKi: −log10 of the molar value.
What follows is a collection of pKi values obtained with rat mGluR5 receptors (Rattus norvegicus, UniProt P31424).

Examples from the recorded data:
compound=Cc1ccc(S(=O)(=O)c2cnc3ccc(Cl)cc3c2N2CCC(C)CC2)cc1Cl recorded_measurement="6.30 to 6.70"
compound=Cc1ccc(S(=O)(=O)c2cnc3ccc(Cl)cc3c2N2CCOCC2)cc1Cl recorded_measurement="6.30 to 6.70"
compound=CCN(CC)c1c(S(=O)(=O)c2ccc(C)cc2)cnc2ccc(OC)cc12 recorded_measurement="< 6.30"
compound=CCOC(=O)C1CCN(c2c(S(=O)(=O)c3ccc(C)cc3)cnc3ccc(F)cc23)CC1 recorded_measurement="< 6.30"
compound=N#Cc1cccc(S(=O)(=O)c2cnc3cc(Cl)ccc3c2N2CCOCC2)c1 recorded_measurement="6.30 to 6.70"
compound=O=S(=O)(c1cccc(Cl)c1)c1cnc2ccc(Cl)cc2c1N1CCOCC1 recorded_measurement="< 6.30"

Consider "CCOC(=O)C1CCN(c2c(S(=O)(=O)c3ccc(Cl)cc3)cnc3ccc(CC)cc23)CC1" . Its measured pKi is > 6.70

Just so you know, measured pKi for "COc1ccc2ncc(S(=O)(=O)c3ccc(C)cc3)c(NCc3ccccc3)c2c1" came out at < 6.30

###

Quick note: these are Ki numbers for system: rat mGluR5 receptors (Rattus norvegicus, UniProt P31424)

Answered examples (3):
compound=CC1CCN(c2c(S(=O)(=O)c3ccc(F)c(Cl)c3)cnc3c(F)cccc23)CC1 recorded_measurement="< 200 nM"
compound=O=S(=O)(c1ccc(Cl)c(Cl)c1)c1cnc2cc(F)ccc2c1N1CCOCC1 recorded_measurement="< 200 nM"
compound=Cc1ccc(S(=O)(=O)c2cnc3ccccc3c2N2CCCCC2)cc1 recorded_measurement="< 200 nM"

# next compound below
The reported Ki value, rat mGluR5 receptors (Rattus norvegicus, UniProt P31424), for "Cc1ccc(S(=O)(=O)c2cnc3ccc(F)cc3c2N2CCN(c3ccccc3)CC2)cc1" reads > 500 nM

###

Parameter pKi, tested on rat mGluR5 receptors (Rattus norvegicus), listed per item.
pKi: −log10 of the molar value.

Some entries whose results are on file:
compound="CCOc1ccc2ncc(S(=O)(=O)c3ccc(OC)cc3)c(N3CCOCC3)c2c1 [Compound 125]" parameter_measured=pKi recorded_measurement="< 6.30"
compound="O=S(=O)(c1ccc(Cl)cc1)c1cnc2ccccc2c1N1CCN(c2ccc(F)cc2)CC1 [Compound 72]" parameter_measured=pKi recorded_measurement="< 6.30"
compound="O=S(=O)(c1ccccc1)c1cnc2ccc(Cl)cc2c1N1CCOCC1 [Compound 291]" parameter_measured=pKi recorded_measurement="< 6.30"
compound="COc1ccc(S(=O)(=O)c2cnc3c(F)cccc3c2N2CCC(C)CC2)cc1 [Compound 229]" parameter_measured=pKi recorded_measurement="6.30 to 6.70"
compound="O=S(=O)(c1cc(Cl)cc(Cl)c1)c1cnc2cc(F)ccc2c1N1CCOCC1 [Compound 308]" parameter_measured=pKi recorded_measurement="6.30 to 6.70"
compound="O=S(=O)(c1ccccc1)c1cnc2ccccc2c1N1CCCCC1 [Compound 5]" parameter_measured=pKi recorded_measurement="6.30 to 6.70"
compound="COc1ccc(S(=O)(=O)c2cnc3cc(Cl)ccc3c2N2CCC(C)CC2)cc1Cl [Compound 200]" parameter_measured=pKi recorded_measurement="> 6.70"
compound="O=S(=O)(c1ccc(Cl)cc1)c1cnc2cc(Cl)ccc2c1N1CCOCC1 [Compound 324]" parameter_measured=pKi recorded_measurement="6.30 to 6.70"

Value sought: pKi, system rat mGluR5 receptors (Rattus norvegicus), item CC1CCN(c2c(S(=O)(=O)c3cccc(F)c3)cnc3ccc(F)cc23)CC1 [Compound 144] . Result: 6.30 to 6.70

Reported pKi (rat mGluR5 receptors (Rattus norvegicus)) for entry CCc1ccc2ncc(S(=O)(=O)c3ccc(C)cc3)c(NCc3ccc(F)cc3)c2c1 [Compound 130] is < 6.30

Record Cc1ccc(S(=O)(=O)c2cnc3ccc(C)cc3c2N2CCC(C(N)=O)CC2)cc1 [Compound 59] has rat mGluR5 receptors (Rattus norvegicus) pKi equal to < 6.30

Tested system rat mGluR5 receptors (Rattus norvegicus); pKi recorded for CCc1ccc2ncc(S(=O)(=O)c3ccc(OC)cc3)c(N3CCCCC3)c2c1 [Compound 134] was < 6.30
